From: ChEMBL document CHEMBL1177728

Entries and their pIC50
- target.entity: Autotaxin (Homo sapiens)
- assay.remarks: Inhibition of 6x-histidine-tagged human recombinant ATX expressed in HEK293 cells assessed as lysophosphatidulcholine release
- Type: cell-based
pIC50: −log10 of the molar value.
endpoint: pIC50

>>> print(df.to_string())
                              sample_smiles             target_entity  qualifier  measured_result
0  O=C(O)c1ccc(COc2ccc(/C=C3\SC(=O)N(Cc4ccc(F)cc4)C3=O)cc2)cc1  Autotaxin (Homo sapiens)          =             5.79
1  COc1cc(/C=C2\SC(=O)N(Cc3ccccc3)C2=O)ccc1OCc1ccc(C(=O)O)cc1  Autotaxin (Homo sapiens)          =             5.54
2  COc1cc(/C=C2\SC(=O)N(Cc3ccc(F)cc3)C2=O)ccc1OCc1cccc(C(=O)O)c1  Autotaxin (Homo sapiens)          =             5.69
3  COc1cc(/C=C2\SC(=O)N(Cc3ccc(C(C)(C)C)cc3)C2=O)ccc1OCc1ccc(C(=O)O)cc1  Autotaxin (Homo sapiens)          =             4.87
4  O=C1S/C(=C\c2cccc(OCc3cccc(B(O)O)c3)c2)C(=O)N1Cc1ccc(F)cc1  Autotaxin (Homo sapiens)          =             7.92
5  O=C1S/C(=C\c2ccc(OCc3cccc(B(O)O)c3)cc2)C(=O)N1Cc1ccc(F)cc1  Autotaxin (Homo sapiens)          =             7.55
6  O=C(O)c1cccc(COc2ccc(/C=C3\SC(=O)N(Cc4ccc(F)cc4)C3=O)cc2)c1  Autotaxin (Homo sapiens)          =             5.97
7  O=C1S/C(=C\c2cccc(OCc3ccc(B(O)O)cc3)c2)C(=O)N1Cc1ccc(F)cc1  Autotaxin (Homo sapiens)          =             7.53
8  O=C1S/C(=C\c2ccc(OCc3ccccc3B(O)O)cc2)C(=O)N1Cc1ccc(F)cc1  Autotaxin (Homo sapiens)          <             5.30

* * *

- target.entity: Autotaxin (Homo sapiens, UniProt Q13822)
- assay.remarks: Inhibition of 6x-histidine-tagged human recombinant ATX expressed in HEK293 cells assessed as residual enzyme activity by lysophosphatidulcholine release assay
- Format: cell-based
Entries and their Activity
endpoint: Activity (%)

                              sample_smiles  measured_result
0  COc1cc(/C=C2\SC(=O)N(Cc3ccc(F)cc3)C2=O)ccc1OCc1cccc(C(=O)O)c1               42
1  COc1cc(/C=C2\SC(=O)N(Cc3ccc(C(C)(C)C)cc3)C2=O)ccc1OCc1ccc(C(=O)O)cc1               27
2  COc1cc(/C=C2\SC(=O)N(Cc3ccc(F)cc3)C2=O)ccc1OCc1ccc(C(=O)O)cc1               35
3  COc1cc(/C=C2\SC(=O)N(Cc3ccc([N+](=O)[O-])cc3)C2=O)ccc1OCc1ccc(C(=O)O)cc1               56
4  COc1cc(/C=C2\SC(=O)N(Cc3ccccc3)C2=O)ccc1OCc1ccc(C(=O)O)cc1               29
5  O=C(O)c1ccc(COc2ccc(/C=C3\SC(=O)N(Cc4ccc(F)cc4)C3=O)cc2)cc1               40
6  O=C(O)c1cccc(COc2ccc(/C=C3\SC(=O)N(Cc4ccc(F)cc4)C3=O)cc2)c1                7

* * *

- target.entity: UniProt:Q13822
- assay.remarks: Inhibition of 6x-histidine-tagged human recombinant ATX expressed in HEK293 cells assessed as lysophosphatidulcholine release at 5 uM
- Type: cell-based
Mark FALSE for inhibition values under 20%, and TRUE for everything at or above.

>>> print(df.to_string())
                                    compound  class_label
 0  COc1cc(/C=C2\SC(=O)N(C(c3ccccc3)c3ccccc3)C2=O)ccc1OCc1ccc(C(=O)O)cc1        FALSE
 1  COc1cc(/C=C2\SC(=O)N(Cc3ccc(OC(F)(F)F)cc3)C2=O)ccc1OCc1ccc(C(=O)O)cc1        FALSE
 2  COc1cc(/C=C2\SC(=O)N(Cc3cccc4ccccc34)C2=O)ccc1OCc1ccc(C(=O)O)cc1        FALSE
 3  COc1cc(/C=C2\SC(=O)N(Cc3ccccc3C(F)(F)F)C2=O)ccc1OCc1ccc(C(=O)O)cc1         TRUE
 4  O=C1S/C(=C\c2cccc(OCc3ccccc3B(O)O)c2)C(=O)N1Cc1ccc(F)cc1        FALSE
 5  COc1cc(/C=C2\SC(=O)N(Cc3ccc(C)cc3)C2=O)ccc1OCc1ccc(C(=O)O)cc1        FALSE
 6  COc1cc(/C=C2\SC(=O)N(CCN3C(=O)c4ccccc4C3=O)C2=O)ccc1OCc1ccc(C(=O)O)cc1        FALSE
 7  C=CCN1C(=O)S/C(=C\c2ccc(OCc3ccc(C(=O)O)cc3)c(OC)c2)C1=O        FALSE
 8  COc1cc(/C=C2\SC(=O)N(Cc3ccncc3)C2=O)ccc1OCc1ccc(C(=O)O)cc1        FALSE
 9  COc1cc(/C=C2\SC(=O)N(Cc3ccc(C(=O)O)cc3[N+](=O)[O-])C2=O)ccc1OCc1ccc(C(=O)O)cc1         TRUE
10  CCCCCN1C(=O)S/C(=C\c2ccc(OCc3ccc(C(=O)O)cc3)c(OC)c2)C1=O        FALSE
11  COc1cc(/C=C2\SC(=O)N(Cc3ccc(F)cc3Br)C2=O)ccc1OCc1ccc(C(=O)O)cc1         TRUE
12  COc1cc(/C=C2\SC(=O)N(Cc3ccccc3[N+](=O)[O-])C2=O)ccc1OCc1ccc(C(=O)O)cc1         TRUE
13  COc1cc(/C=C2\SC(=O)N(CC(=O)c3ccc(Cl)cc3)C2=O)ccc1OCc1ccc(C(=O)O)cc1         TRUE
14  O=C1S/C(=C\c2ccc(OCc3cccc(B(O)O)c3)cc2)C(=O)N1Cc1ccc(F)cc1         TRUE
15  COc1cc(/C=C2\SC(=O)N(Cc3cccc(Cl)c3)C2=O)ccc1OCc1ccc(C(=O)O)cc1         TRUE
16  COc1ccc(CN2C(=O)S/C(=C\c3ccc(OCc4ccc(C(=O)O)cc4)c(OC)c3)C2=O)cc1        FALSE
17  COc1cc(/C=C2\SC(=O)N(Cc3cccc(C#N)c3)C2=O)ccc1OCc1ccc(C(=O)O)cc1         TRUE
18  COc1cc(/C=C2\SC(=O)N(Cc3ccccc3F)C2=O)ccc1OCc1ccc(C(=O)O)cc1         TRUE
19  COc1cc(/C=C2\SC(=O)N(Cc3ccc(Br)cc3)C2=O)ccc1OCc1ccc(C(=O)O)cc1         TRUE
20  COc1cc(/C=C2\SC(=O)N(Cc3ccc(C#N)cc3)C2=O)ccc1OCc1ccc(C(=O)O)cc1         TRUE
21  COc1cc(/C=C2\SC(=O)N(Cc3ccccc3Br)C2=O)ccc1OCc1ccc(C(=O)O)cc1         TRUE
22  O=C1S/C(=C\c2cccc(OCc3cccc(B(O)O)c3)c2)C(=O)N1Cc1ccc(F)cc1         TRUE
23  COc1cc(/C=C2\SC(=O)N(Cc3ccc(CC(=O)O)cc3)C2=O)ccc1OCc1ccc(C(=O)O)cc1         TRUE
24  COc1cc(/C=C2\SC(=O)N(C(C)c3ccccc3)C2=O)ccc1OCc1ccc(C(=O)O)cc1 (configuration not stated)        FALSE
25  COc1cc(/C=C2/SC(=O)N(Cc3c(Cl)cccc3Cl)C2=O)ccc1OCc1ccc(C(=O)O)cc1         TRUE
26  COc1cc(/C=C2\SC(=O)N(Cc3ccccc3Cl)C2=O)ccc1OCc1ccc(C(=O)O)cc1         TRUE
27  COc1cc(/C=C2\SC(=O)N(Cc3cccc([N+](=O)[O-])c3)C2=O)ccc1OCc1ccc(C(=O)O)cc1         TRUE
28  COc1cc(/C=C2\SC(=O)N(Cc3ccc(F)cc3)C2=O)ccc1OCc1ccc(C(=O)O)cc1         TRUE
29  COc1cc(/C=C2\SC(=O)N(Cc3ccc(C(F)(F)F)cc3)C2=O)ccc1OCc1ccc(C(=O)O)cc1         TRUE
30  COc1cc(/C=C2\SC(=O)N(Cc3cccc(C(F)(F)F)c3)C2=O)ccc1OCc1ccc(C(=O)O)cc1         TRUE

* * *

- target.entity: Autotaxin (Homo sapiens)
- assay.remarks: Inhibition of 6x-histidine-tagged human recombinant ATX expressed in HEK293 cells using bisP-nitrophenyl phosphate as a substrate at 5 uM
- Type: cell-based
Mark label 0 for inhibition values under 80%, and label 1 for everything at or above.

>>> df
                                   compound             target_entity  class_label
0  CCOc1cc(/C=C2\SC(=O)N(Cc3ccccc3)C2=O)ccc1OCc1ccc(C(=O)O)cc1  Autotaxin (Homo sapiens)      label 1
1  COc1cc(/C=C2\SC(=O)N(Cc3ccc(F)cc3)C2=O)ccc1OCc1ccc(C(=O)O)cc1  Autotaxin (Homo sapiens)      label 1
2  O=C(CSc1nc2ccc(N3C(=O)c4ccccc4C3=O)cc2s1)Nc1cccc(Cl)c1  Autotaxin (Homo sapiens)      label 0
3  CC(C)Cc1ccc(-c2n[nH]c3c2C(c2ccc(N(C)C)cc2)C(C#N)=C(N)O3)cc1 (configuration not stated)  Autotaxin (Homo sapiens)      label 1
4  Cn1c(=O)n(C)c2cc(/C=C3\SC(=O)N(Cc4ccccc4)C3=O)ccc21  Autotaxin (Homo sapiens)      label 0
5  COc1cc(/C=C2\SC(=O)N(Cc3ccc(Cl)cc3)C2=O)ccc1OCc1ccncc1  Autotaxin (Homo sapiens)      label 1
